Consider compounds characterized by their IC50 with Ectonucleoside triphosphate diphosphohydrolase 1 (Mus musculus, UniProt P55772).
Sequence (P55772 whole entry): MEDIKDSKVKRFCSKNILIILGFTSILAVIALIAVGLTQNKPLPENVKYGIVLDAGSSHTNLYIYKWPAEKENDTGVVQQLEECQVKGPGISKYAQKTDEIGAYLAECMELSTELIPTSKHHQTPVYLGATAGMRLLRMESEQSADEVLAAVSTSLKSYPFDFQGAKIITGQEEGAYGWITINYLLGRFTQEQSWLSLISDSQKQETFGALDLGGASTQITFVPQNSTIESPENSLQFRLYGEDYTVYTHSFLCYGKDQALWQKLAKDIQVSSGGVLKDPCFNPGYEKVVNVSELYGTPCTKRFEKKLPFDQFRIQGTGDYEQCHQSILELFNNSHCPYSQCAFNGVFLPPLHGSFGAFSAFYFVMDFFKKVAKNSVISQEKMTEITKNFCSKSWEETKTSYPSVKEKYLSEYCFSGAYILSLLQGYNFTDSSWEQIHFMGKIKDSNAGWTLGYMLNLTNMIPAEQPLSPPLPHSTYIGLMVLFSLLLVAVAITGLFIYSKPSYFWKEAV
Give just the number in nM; leave the unit off.

Solved entries (count: 2):
COMPOUND: C=C(C)[C@@H]1CC[C@]2(CO)CC[C@]3(C)[C@H](CC[C@@H]4[C@@]5(C)CC[C@H](O)C(C)(C)[C@@H]5CC[C@]43C)[C@@H]12 [BETULIN]
RECORDED VALUE: 49800

COMPOUND: O=c1oc2c(O)c(O)cc3c(=O)oc4c(O)c(O)cc1c4c23 [ELLAGIC ACID]
RECORDED VALUE: 500

Hey, Ectonucleoside triphosphate diphosphohydrolase 1 (Mus musculus, UniProt P55772) data for O=C(OC[C@H]1O[C@@H](OC(=O)c2cc(O)c(O)c(O)c2)[C@H](OC(=O)c2cc(O)c(O)c(O)c2)[C@@H](OC(=O)c2cc(O)c(O)c(O)c2)[C@@H]1OC(=O)c1cc(O)c(O)c(O)c1)c1cc(O)c(O)c(O)c1 [PENTAGALLOYL GLUCOSE] : IC50 came out at 1560

====

system: MIA PaCa-2; test: Cytotoxicity against human MIA PaCa-2 cells expressing CD73 assessed as reduction in cell viability by CCK8 assay; type: functional, cell-based
READOUT LABEL: pIC50
Lab note: report pIC50 as minus log10 of the concentration in molar units, number only.

STRUCTURE STRING: O=C(OC[C@H]1O[C@@H](OC(=O)c2cc(O)c(O)c(O)c2)[C@H](OC(=O)c2cc(O)c(O)c(O)c2)[C@@H](OC(=O)c2cc(O)c(O)c(O)c2)[C@@H]1OC(=O)c1cc(O)c(O)c(O)c1)c1cc(O)c(O)c(O)c1
ASSAY SYSTEM: MIA PaCa-2
pIC50: 4.14

STRUCTURE STRING: C=C(C)[C@@H]1CC[C@]2(CO)CC[C@]3(C)[C@H](CC[C@@H]4[C@@]5(C)CC[C@H](O)C(C)(C)[C@@H]5CC[C@]43C)[C@@H]12
ASSAY SYSTEM: MIA PaCa-2
pIC50: 4.02

STRUCTURE STRING: Nc1ccn([C@@H]2O[C@H](CO)[C@@H](O)C2(F)F)c(=O)n1
ASSAY SYSTEM: MIA PaCa-2
pIC50: 6.64

Now look at this entry.
Hey, MIA PaCa-2 data for O=c1oc2c(O)c(O)cc3c(=O)oc4c(O)c(O)cc1c4c23 : pIC50 came out at 3.82
